# measurementTarget: Aldo-keto reductase family 1 member B1 (Rattus norvegicus) (UniProt P07943)
# assayNotes: Inhibition of rat aldose reductase activity at 100 uM.
assayReadout: inhibition (%)

Worked cases, answers included:
Nc1ccc(S(=O)(=O)NCC(=O)O)cc1 : 76
Nc1cccc(S(=O)(=O)NCC(=O)O)c1 : 73
O=C(O)CNS(=O)(=O)c1cccc(NC(=O)c2ccccc2)c1 : 79
O=C(O)CNS(=O)(=O)c1ccc(NC(=O)Nc2ccccc2)cc1 : 83

a. O=C(O)CNS(=O)(=O)c1ccc(NC(=O)COc2ccccc2)cc1
b. O=C(O)CNS(=O)(=O)c1ccccc1NC(=O)c1ccccc1
Between item a and item b , which reported inhibition is smaller? Pick one; state its label.
b
